Test system: M14 melanoma
Assay: NCI-60 one-dose screen, 48 h (100 = growth as untreated, 0 = no growth, -100 = all killed)
Settings: 10 µM
About 83,000 compounds went through this panel and 20% of them were active in at least one assay; those are over-represented in the sample as a whole.
Below is a list of entries, each paired with its recorded growth value.
Give the value, in units of %, as a plain number.

compound=COc1ccc(-c2nn(-c3cccc(NC(=O)c4ccc(N5CCOCC5)c(C(F)(F)F)c4)c3)cc2-c2ccncc2)cc1Cl number=65

Item `O=C1c2ccc3c4c(ccc(c24)C(=O)N1CCNCc1ccccc1)C(=O)N(CCNCc1ccccc1)C3=O` has what recorded growth?
-62.3

Same thing, different compound: `Clc1ccc(Sc2nc(NC3CC3)nc(Sc3ccc(Cl)cc3)n2)cc1`
86.2

Same thing, different compound: `Cc1cc(=O)n2nnc3c4ccccc4ccc3n12`
92.4

Same thing, different compound: CCOC1(OCC)OC(c2ccccc2)=C(C#N)C(/C=C\c2ccccc2)C1(OCC)OCC (configuration not stated)
78

Same thing, different compound: C=C(NC(=O)C(=C)NC(=O)c1csc(C2=NC3c4csc(n4)C4NC(=O)c5csc(n5)C(C(C)(O)C(C)O)NC(=O)C5CSC(=N5)/C(=C/C)NC(=O)C(C(C)O)NC(=O)c5csc(n5)C3(CC2)NC(=O)C(C)NC(=O)C(=C)NC(=O)C(=C)NC(=O)C(C(C)C)NC2C=Cc3c(C(C)O)cc(nc3C2O)C(=O)OC4C)n1)C(N)=O (configuration not stated)
-29.5

Same thing, different compound: `COc1ccc(Nc2cc(C)nc(NCCCNc3ccnc4cc(Cl)ccc34)n2)cc1`
-81.1

Same thing, different compound: `C(CCCC1=NCCO1)CCCC1=NCCO1`
109

Same thing, different compound: `COc1ccc2c(c1)[n+]([O-])c(C#N)c(NC(=O)c1ccco1)[n+]2[O-]`
104

Same thing, different compound: `COc1ccc(C(=O)/C=C/c2cc(-c3cc(OC)c(OC)c(OC)c3)n[nH]2)cc1`
54.6

====

System: BT-549 breast
Test: NCI-60 one-dose screen, 48 h (100 = growth as untreated, 0 = no growth, -100 = all killed)
Details: 10 µM
About 83,000 compounds went through this panel and 20% of them were active in at least one assay; those are over-represented in the sample as a whole.
measured-endpoint: growth (%)
Give the value, in units of %, as a plain number.

molecule=COc1ccc(/C(=C2\O[C@@H]([C@H]3COC(C)(C)O3)[C@H]3OC(C)(C)O[C@@H]23)c2cc(OC)c(OC)c(OC)c2)cc1O number=57.7
molecule=O=c1[nH]c(-c2ccc(Cl)cc2)nc2sc3c(c12)CCCC3 number=92.3
molecule=O=c1oc2cc(OS(=O)(=O)c3ccccc3)ccc2c2c1CCCCC2 number=59.9
molecule=Cc1ccc(NC(=O)CSc2nc3ccccc3c(=O)n2CCc2ccccc2)c(C(=O)O)c1 number=96.8

Item Nc1c(C(=O)Nc2cccc(Br)c2)sc2nc3c(cc12)C(O)CCC3 (stereo not given) has what recorded growth?
45.2

====

Test system: UO-31 renal
Test: NCI-60 one-dose screen, 48 h
Details: 10 µM
Compounds without any hit were thinned out: in the full panel of roughly 83,000, 20% have a hit. The source made the active and inactive calls. How the source made its calls: active means growth percent below 10; inactive means the rest.
Parameter call: string, one of active, inactive

Answered cases to consult:
molecule="CCCCCCCCCCCCC1C/C=C\\CCCC(=O)O1 (stereo unspecified)" label=inactive
molecule=O=C(Nc1cccc(-n2cc(-c3ccncc3)c(-c3ccc(O)c(Cl)c3)n2)c1)c1ccc(N2CCOCC2)c(C(F)(F)F)c1 label=inactive
molecule=CSc1nc(=O)n(Cc2ccc(F)cc2)c(=O)n1Cc1ccc(C)cc1 label=inactive

Called result for `O=C(C[P+](c1ccccc1)(c1ccccc1)c1ccccc1)C[P+](c1ccccc1)(c1ccccc1)c1ccccc1`
active

Same thing, different molecule: `COc1cc(NC(=O)CCSc2nc3ccc(C)cc3c(=O)n2Cc2ccccc2)cc(OC)c1OC`
inactive

Same thing, different molecule: `COc1cc2cc3c(nc2cc1OC)CCN3Cc1ccc(NC(=O)Nc2cc(C(F)(F)F)cc(C(F)(F)F)c2)cc1`
inactive
